Target: T1, Bcl-w, Q92843
T1 chain: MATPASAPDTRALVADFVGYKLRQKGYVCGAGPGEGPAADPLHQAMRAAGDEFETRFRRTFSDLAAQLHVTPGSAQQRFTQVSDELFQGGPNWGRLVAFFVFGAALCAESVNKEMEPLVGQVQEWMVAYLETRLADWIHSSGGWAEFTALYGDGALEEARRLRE
Assay: peptide SPOT array, c-Myc-tagged receptor at 1 uM or 100 nM, anti-c-Myc-Cy3
binders and their reported SPOT signal as a fraction of Bim BH3's signal on the same receptor and array

Enquiry: Value lookup for SPOT signal as a fraction of Bim BH3's signal on the same receptor and array; key = CLSCDLCGCRLGEVGRRLYYKLGRKL [LMO2]
Return: 1.8

Enquiry: Same again, this time with DLSSTFVSLALRKVGDWPLSARREKG [TTC31]
Return: 1.09

Enquiry: Same again, this time with GDRAGGRSWCLRRVGMSAGWLLLEDG [RNF8]
Return: 0.07
